Conditions: 279 patients, tamoxifen 20 mg daily, plasma
readoutKind: Steady-state plasma concentration, Max (ng/mL)

1. CC/C(=C(/c1ccc(OCCN(C)C)cc1)c1ccc(O[C@@H]2O[C@H](C(=O)O)[C@@H](O)[C@H](O)[C@H]2O)cc1)c1ccccc1 [(E)-4-OH-Tam-O-gluc] | 1.19
2. CC/C(=C(\c1ccccc1)c1ccc(OCCN(C)C)cc1)c1ccccc1 [Tamoxifen] | 402.10
3. CCC(=C(c1ccccc1)c1ccc(OCCNC)cc1)c1ccc(O)cc1 [4′-OH-NDM-Tam, 4’-hydroxy-N-desmethyl-tamoxifen] | 15.66
4. CC(O)/C(=C(/c1ccccc1)c1ccc(OCCN(C)C)cc1)c1ccccc1 (stereo not drawn) [(Z)-α-OH-Tam, (Z)-α-hydroxy-tamoxifen] | 0.19
5. CCC(=C(c1ccccc1)c1ccc(OCC[N+](C)(C)C2OC(C(=O)[O-])C(O)C(O)C2O)cc1)c1ccccc1 (mixture of isomers) [(E/Z)-Tam-N-gluc, Tamoxifen-N-β-D-glucuronide] | 2.45
6. CC/C(=C(/c1ccc(O)cc1)c1ccc(OCCNC)cc1)c1ccccc1 [(E)-Endoxifen, (E)-4-hydroxy-N-desmethyl-tamoxifen] | 0.37
7. CCC(=C(c1ccccc1)c1ccc(OCCN(C)C)cc1)c1ccc(O)cc1 [4′-OH-Tam, 4’-hydroxy-tamoxifen] | 8.72
8. CC(O)/C(=C(\c1ccccc1)c1ccc(OCCN(C)C)cc1)c1ccccc1 (stereo not drawn) [(E)-α-OH-Tam, (E)-α-hydroxy-tamoxifen] | 1.02
9. CCC(=C(c1ccc(OCCNC)cc1)c1ccc(O[C@@H]2O[C@H](C(=O)O)[C@@H](O)[C@H](O)[C@H]2O)cc1)c1ccccc1 (mixture of isomers) [(E/Z)-4-OH-NDM-Tam-gluc] | 11.49

* * *

Details: Patient ID 141, CYP2D6 functional group EM/UM
Catalogue of plasma concentration values
readoutKind: plasma concentration (ng/mL)

1. CC/C(=C(/c1ccc(OCCNC)cc1)c1ccc(O[C@@H]2O[C@H](C(=O)O)[C@@H](O)[C@H](O)[C@H]2O)cc1)c1ccccc1 [4-OH-NDM-Tam-Gluc] | 0.331
2. CC(O)C(=C(c1ccccc1)c1ccc(OCCN(C)C)cc1)c1ccccc1 (racemic) [(Z)-a-OH-Tam] | 0
3. CCC(=C(c1ccccc1)c1ccc(OCCNC)cc1)c1ccc(O)cc1 [4'-OH-NDM-Tam] | 0
4. CC/C(=C(\c1ccccc1)c1ccc(OCCN(C)C)cc1)c1ccc(O)cc1 [4'-OH-Tam] | 0.37
5. CC(O)C(=C(c1ccccc1)c1ccc(OCCN(C)C)cc1)c1ccccc1 (racemic) [(E)-a-OH-Tam] | 0.185
6. CC/C(=C(\c1ccccc1)c1ccc(OCCN(C)C)cc1)c1ccccc1 [Tamoxifen] | 57.82
7. CC/C(=C(\c1ccc(O)cc1)c1ccc(OCCNC)cc1)c1ccccc1 [(Z)-Endoxifen 3-OH-NDM-Tam] | 1.16

* * *

Details: Patient ID 130, CYP2D6 functional group EM/EM
Lab note - cut at 3 ng/mL for plasma concentration: Met if strictly below, Not met if not.

1. CC/C(=C(/c1ccc(OCCNC)cc1)c1ccc(O[C@@H]2O[C@H](C(=O)O)[C@@H](O)[C@H](O)[C@H]2O)cc1)c1ccccc1 | Met
2. CC/C(=C(\c1ccccc1)c1ccc(OCCN(C)C)cc1)c1ccc(O)cc1 | Not met
3. CC/C(=C(\c1ccccc1)c1ccc(OCCN(C)C)cc1)c1ccccc1 | Not met
4. CCC(=C(c1ccccc1)c1ccc(OCCNC)cc1)c1ccc(O)cc1 | Not met
5. CC(O)C(=C(c1ccccc1)c1ccc(OCCN(C)C)cc1)c1ccccc1 (racemic) [(E)-a-OH-Tam] | Met
6. CC/C(=C(\c1ccc(O)cc1)c1ccc(OCCNC)cc1)c1ccccc1 [(Z)-Endoxifen 3-OH-NDM-Tam] | Not met
7. CC(O)C(=C(c1ccccc1)c1ccc(OCCN(C)C)cc1)c1ccccc1 (racemic) [(Z)-a-OH-Tam] | Met
